Molecular target: Recombinant human LTC4 synthase (Homo sapiens)
Construct: made in house; host or cells: Pichia pastoris
Assay: LTC4 synthase in vitro assay (HTRF detection of LTC4)
Assay type: biochemical
Settings: compound concentration 3 μM; HTRF method
Protocol: Alternatively HTRF detection of LTC4 can be used: In the assay, LTC4 synthase catalyses the reaction where the substrate LTA4 is converted to LTC4. […] The following is added chronologically to each well: • 1. […] 10 μl of the incubation mixture is analysed using homogeneous time resolved fluorescent (HTRF) detection.
outcome_measure: inhibition at 3 µM (%)
Just the number in %, nothing appended.

For O=C(O)c1cc(Oc2ccc(Nc3ccc(C(=O)C4CC4)cc3)c(C(=O)O)c2)ccc1Nc1ccc(F)cc1 [1:7] , what is its reported inhibition at 3 µM?
97

For Cc1nc(C(F)(F)F)ccc1C(=O)Nc1ccc(Oc2ccc(NC(=O)c3ccc(C(F)(F)F)cc3)c(C(=O)O)c2)cc1 [8:5] , what is its reported inhibition at 3 µM?
83

For CCCCOc1ccc(S(=O)(=O)NC(=O)Cc2cccc(Oc3ccc(Nc4ccc(Cl)cc4)c(C(=O)O)c3)c2)cc1 [26:1] , what is its reported inhibition at 3 µM?
94

For O=C(Nc1ccc(Sc2ccc(NC(=O)Nc3ccc(C(F)(F)F)cc3)c(C(=O)O)c2)cc1)Nc1ccc(C(F)(F)F)cc1 [14:6] , what is its reported inhibition at 3 µM?
80

For CCCCc1ccc(C(=O)Nc2ccc(Oc3ccc(NC(=O)c4ccccc4)cc3)cc2C(=O)O)cc1 [8:8] , what is its reported inhibition at 3 µM?
89

For CCOc1ccc(C(=O)Nc2ccc(Oc3ccc(NC(=O)c4ccccc4)cc3)cc2C(=O)O)cc1 [8:11] , what is its reported inhibition at 3 µM?
70

###

Target: Recombinant human LTC4 synthase (Homo sapiens, UniProt Q16873)
Construct: made in house; host or cells: Pichia pastoris
Sequence (Q16873 1-150): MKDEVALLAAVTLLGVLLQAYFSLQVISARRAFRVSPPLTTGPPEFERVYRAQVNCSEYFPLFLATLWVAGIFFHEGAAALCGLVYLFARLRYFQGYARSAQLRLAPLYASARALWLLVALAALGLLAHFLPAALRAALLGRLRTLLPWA
Assay: LTC4 synthase in vitro assay (HTRF detection of LTC4)
Assay type: biochemical
Settings: total concentration of title compound in the assay 10 μM; HTRF method
Procedure: Alternatively HTRF detection of LTC4 can be used: In the assay, LTC4 synthase catalyses the reaction where the substrate LTA4 is converted to LTC4. […] The following is added chronologically to each well: • 1. […] 10 μl of the incubation mixture is analysed using homogeneous time resolved fluorescent (HTRF) detection.
outcome_measure: inhibition at 10 µM (%)
Just the number in %, nothing appended.

{"columns": ["smiles_data", "unit_of_measure", "value_observed"],
 "data": [
  ["CCCCOc1ccc(S(=O)(=O)Nc2ccc(Oc3ccc(NC(=O)c4ccccc4)cc3)cc2/C=C/C(=O)O)cc1", "%", 96],
  ["CC(C)(C)OC(=O)c1cc(Oc2cccc(C(=O)NS(=O)(=O)c3ccc(F)c(F)c3)c2)ccc1Nc1ccc(Cl)cc1", "%", 100],
  ["COc1ccc(S(=O)(=O)N(C)c2ccc(Oc3ccc(NC(=O)c4ccc(Cl)cc4)c(C(=O)O)c3)cc2)cc1", "%", 99]
]}

For CC(C)Oc1ccc(C(=O)Nc2ccc(Oc3ccc(S(=O)(=O)Nc4ccc(F)c(F)c4)cc3)cc2C(=O)O)cc1 , what is its reported inhibition at 10 µM?
100

For O=C(Nc1ccc(C(F)(F)F)cc1)Nc1ccc(Oc2ccc(S(=O)(=O)Nc3ccc(Cl)cc3)cc2)cc1C(=O)O , what is its reported inhibition at 10 µM?
98

For CCCCOc1ccc(S(=O)(=O)Nc2ccc(Oc3cccc(S(=O)(=O)Nc4ccc(Cl)cc4)c3)cc2C(=O)O)cc1 , what is its reported inhibition at 10 µM?
100

For COc1ccc(S(=O)(=O)Nc2ccc(Oc3ccc(N(C)C(=O)c4ccc(C(C)(C)C)cc4)cc3)cc2C(=O)O)cc1 , what is its reported inhibition at 10 µM?
99

For CCCCOc1ccc(S(=O)(=O)Nc2ccc(Oc3cccc(Oc4ccc(F)c(F)c4)c3)cc2C(=O)O)cc1 , what is its reported inhibition at 10 µM?
98

For O=C(O)c1cc(Oc2ccc(Nc3ccc(F)cc3)cc2)ccc1Nc1ccc(F)c(F)c1 , what is its reported inhibition at 10 µM?
96

For CC(C)(C)c1ccc(C(=O)Nc2ccc(Oc3ccc(NC(=O)c4ccccn4)c(C(=O)O)c3)cc2)cc1 , what is its reported inhibition at 10 µM?
99

For O=C(Nc1ccc(Oc2ccc(NC(=O)c3ccc(OC(F)(F)F)cc3)c(C(=O)O)c2)cc1)c1ccccc1 , what is its reported inhibition at 10 µM?
67

###

Molecular target: Recombinant human LTC4 synthase (Homo sapiens, UniProt Q16873)
Construct: made in house; host or cells: Pichia pastoris
Sequence (Q16873 1-150): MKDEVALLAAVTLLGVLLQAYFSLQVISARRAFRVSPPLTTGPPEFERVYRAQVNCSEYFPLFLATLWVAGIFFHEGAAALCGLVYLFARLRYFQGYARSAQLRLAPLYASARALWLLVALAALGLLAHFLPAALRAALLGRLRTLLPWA
Experiment: LTC4 synthase in vitro assay (HTRF detection of LTC4)
Type: biochemical
Details: total concentration of title compound in the assay 10 μM; HTRF method
outcome_measure: inhibition at 10 µM (%)
Just the number in %, nothing appended.

Recorded inhibition at 10 µM, per entry:
{"columns": ["smiles_data", "unit_of_measure", "inhibition at 10 µM"],
 "data": [
  ["CCCCOc1ccc(S(=O)(=O)Nc2ccc(Oc3ccc(NC(=O)c4ccccc4)cc3)cc2C(=O)O)cc1", "%", 100],
  ["O=C(O)Cc1cc(Oc2ccc(NC(=O)c3ccc(C(F)(F)F)cc3F)c(C(=O)O)c2)ccc1NC(=O)c1cccc(Cl)c1", "%", 96],
  ["CC(C)(C)c1ccc(C(=O)Nc2ccc(Oc3ccc(NC(=O)c4cccnc4Cl)c(C(=O)O)c3)cc2)cc1", "%", 99],
  ["O=C(NS(=O)(=O)c1ccc(F)c(F)c1)c1cccc(Oc2ccc(Nc3ccc(Cl)cc3)c(C(=O)O)c2)c1", "%", 96],
  ["CCCCOc1ccc(S(=O)(=O)Nc2ccc(Oc3ccc(S(=O)(=O)Nc4ccc(F)c(F)c4)cc3)cc2C(=O)O)cc1", "%", 100],
  ["O=C(Nc1ccc(Oc2ccc(NC(=O)c3ccccc3)c(C(=O)O)c2)cc1C(=O)O)c1ccccc1", "%", 93],
  ["CCCCc1ccc(C(=O)Nc2ccc(Oc3ccc(NC(=O)c4ccc(Cl)cc4Cl)c(CC(=O)O)c3)cc2)cc1", "%", 94],
  ["CCCCc1ccc(C(=O)Nc2ccc(Oc3ccc(NS(=O)(=O)c4ccc(S(C)(=O)=O)cc4)cc3)cc2C(=O)O)cc1", "%", 98]
]}

For O=C(O)Cc1cc(Oc2ccc(NC(=O)c3ccccc3)cc2)ccc1NC(=O)c1cccc(Cl)c1Cl , what is its reported inhibition at 10 µM?
99

For O=C(O)c1cc(Sc2ccc(Nc3ccc(Cl)cc3)cc2)ccc1Nc1ccc(Cl)cc1 , what is its reported inhibition at 10 µM?
98

For CCCCc1ccc(C(=O)Nc2ccc(Oc3ccc(NS(=O)(=O)c4ccccc4)c(C(=O)OC)c3)cc2C(=O)O)cc1 , what is its reported inhibition at 10 µM?
95

For O=C(Nc1ccc(Cl)cc1)Nc1ccc(Sc2ccc(NC(=O)Nc3ccc(Cl)cc3)c(C(=O)O)c2)cc1 , what is its reported inhibition at 10 µM?
97

For O=C(Nc1ccc(Oc2ccc(NC(=O)c3cccc(Cl)c3)c(C(=O)O)c2)cc1C(=O)O)c1ccccc1 , what is its reported inhibition at 10 µM?
100

For N#Cc1ccc(C(=O)Nc2ccc(Oc3ccc(NC(=O)c4cccc(Cl)c4)c(C(=O)O)c3)cc2C(=O)O)cc1 , what is its reported inhibition at 10 µM?
99

###

molecular target: Recombinant human LTC4 synthase (Homo sapiens); construct: made in house; host or cells: Pichia pastoris; experiment: LTC4 synthase in vitro assay (HTRF detection of LTC4); format: biochemical; settings: total concentration of title compound in the assay 10 μM; HTRF method
# inhibition at 10 µM values compiled below
Just the number in %, nothing appended.

Recorded inhibition at 10 µM, per entry:
{"columns": ["smiles_data", "value_observed"],
 "data": [
  ["CCCCc1ccc(C(=O)Nc2cccc(Oc3ccc(NC(=O)c4c(F)cccc4F)c(C(=O)O)c3)c2)cc1", 98],
  ["O=C(Nc1ccc(Sc2ccc(NC(=O)c3cccc(Cl)c3)c(C(=O)O)c2)cc1C(=O)O)c1cccc(Cl)c1", 100],
  ["CCCCc1ccc(C(=O)Nc2ccc(Oc3ccc(NC(=O)c4ccccc4)c(C(=O)O)c3)cc2C(=O)O)cc1", 100],
  ["O=C(Nc1ccc(Sc2ccc(NC(=O)c3ccc(Cl)cc3Cl)c(C(=O)O)c2)cc1)c1ccc(C(F)(F)F)cc1", 99]
]}

For CCCCOc1ccc(S(=O)(=O)Nc2ccc(Oc3cccc(CC(=O)NS(=O)(=O)c4ccc(F)c(F)c4)c3)cc2C(=O)O)cc1 , what is its reported inhibition at 10 µM?
95

For Cc1nc(C(F)(F)F)ccc1C(=O)Nc1ccc(Oc2ccc(NC(=O)c3ccc(OC(C)C)cc3)cc2)cc1C(=O)O , what is its reported inhibition at 10 µM?
100

For O=C(O)c1cc(Oc2ccc(Nc3cc(C(F)(F)F)ccc3Cl)c(C(=O)O)c2)ccc1Nc1ccc(F)c(F)c1 , what is its reported inhibition at 10 µM?
98

For Cc1nc(C(F)(F)F)ccc1C(=O)Nc1ccc(Oc2ccc(NS(=O)(=O)c3cc(Cl)cc(Cl)c3O)c(C(=O)O)c2)cc1 , what is its reported inhibition at 10 µM?
98

For COc1ccc(S(=O)(=O)N(C)c2ccc(Oc3ccc(NC(=O)c4ccc(Cl)cc4OC)c(C(=O)O)c3)cc2)cc1 , what is its reported inhibition at 10 µM?
97

For O=C(O)c1cc(Oc2ccc(Nc3ccc([N+](=O)[O-])cc3)c(C(=O)O)c2)ccc1Nc1ccc(F)cc1 , what is its reported inhibition at 10 µM?
100

For COc1ccc(S(=O)(=O)N(C)c2ccc(Oc3ccc(NC(=O)c4ccccc4C(F)(F)F)c(C(=O)O)c3)cc2)cc1 , what is its reported inhibition at 10 µM?
96
